Assay: Half life in dog at 2 mg/kg, iv
Format: ADME, organism-based, Canis lupus familiaris
Design: dose 2 mg/kg, route intravenous
Conditions: in vivo
Readout name: half-life (min)
Numbers only, in min.

Name the recorded half-life of the compound listed here: `CCNc1nc2sc(-c3cccc([C@H](C)NC(C)=O)c3)nc2c2c1ncn2C`
42

* * *

Assay: Mean residence time in mouse at 2 mg/kg, iv and 10 mg/kg, po
Format: ADME, organism-based
Conditions: in vivo
Readout name: MRT (h)
One number for each entry, in h.

For the compound `CCNc1nc2sc(-c3cccc([C@H](C)NC(C)=O)c3)nc2c2c1ncn2C` , report MRT.
2.9

* * *

Assay: Oral bioavailability in rat at 10 mg/kg
Assay type: ADME, organism-based
Settings: in vivo
Readout name: bioavailability (%)
Numbers only, in %.

Consider the compound `CCNc1nc2sc(-c3cccc([C@H](C)NC(C)=O)c3)nc2c2c1ncn2C` and give its recorded bioavailability.
88

* * *

Assay: Tmax in rat at 2 mg/kg, iv and 10 mg/kg, po
Assay type: ADME, organism-based
Conditions: in vivo
Readout name: Tmax (h)
One number for each entry, in h.

Kindly indicate its recorded Tmax. Item: `CCNc1nc2sc(-c3cccc([C@H](C)NC(C)=O)c3)nc2c2c1ncn2C`
2

* * *

Biological target: Inhibitor of nuclear factor kappa-B kinase subunit beta (Homo sapiens)
Sequence (O14920 whole entry): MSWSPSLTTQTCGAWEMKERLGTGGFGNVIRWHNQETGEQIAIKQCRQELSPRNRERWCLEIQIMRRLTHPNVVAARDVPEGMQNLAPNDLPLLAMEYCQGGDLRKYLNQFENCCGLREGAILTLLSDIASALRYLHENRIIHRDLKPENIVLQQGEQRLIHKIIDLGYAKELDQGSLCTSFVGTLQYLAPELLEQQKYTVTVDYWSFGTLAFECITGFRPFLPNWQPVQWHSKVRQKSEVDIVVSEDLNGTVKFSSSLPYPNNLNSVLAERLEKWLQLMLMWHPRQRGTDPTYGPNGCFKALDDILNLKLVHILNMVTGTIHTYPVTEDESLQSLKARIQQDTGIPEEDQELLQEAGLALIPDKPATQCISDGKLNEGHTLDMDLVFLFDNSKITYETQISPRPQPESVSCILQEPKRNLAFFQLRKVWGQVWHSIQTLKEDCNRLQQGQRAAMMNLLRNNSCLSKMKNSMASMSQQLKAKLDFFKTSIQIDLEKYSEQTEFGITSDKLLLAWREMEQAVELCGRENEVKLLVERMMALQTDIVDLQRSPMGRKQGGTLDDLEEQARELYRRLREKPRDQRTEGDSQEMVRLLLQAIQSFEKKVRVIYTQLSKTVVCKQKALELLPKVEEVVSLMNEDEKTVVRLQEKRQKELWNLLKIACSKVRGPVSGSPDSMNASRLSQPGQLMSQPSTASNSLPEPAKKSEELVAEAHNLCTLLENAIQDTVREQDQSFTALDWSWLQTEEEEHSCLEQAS
Assay: Inhibition of IKK2
Mark each entry 1.0 if its IC50 sits below 20 nM, and 0.0 for all others.

Please review the entries below; each comes with its answer.
[
  {
    "Compound": "CC(=O)N[C@@H](C)c1cccc(-c2nc3c(nc(NCC(F)(F)F)c4ncn(C)c43)s2)c1",
    "Test target": "Inhibitor of nuclear factor kappa-B kinase subunit beta (Homo sapiens)",
    "Group": 0.0
  },
  {
    "Compound": "CC(=O)N[C@@H](C)c1cccc(-c2nc3c(nc(NC(=O)N(C)C)c4ncn(C)c43)s2)c1",
    "Test target": "Inhibitor of nuclear factor kappa-B kinase subunit beta (Homo sapiens)",
    "Group": 0.0
  },
  {
    "Compound": "CCNc1nc2sc(-c3cccc([C@H](C)NC(=O)C4CCN(C)CC4)c3)nc2c2c1ncn2C",
    "Test target": "Inhibitor of nuclear factor kappa-B kinase subunit beta (Homo sapiens)",
    "Group": 1.0
  },
  {
    "Compound": "CCNc1nc2sc(-c3cccc([C@H](C)NC(=O)c4cccc(S(C)(=O)=O)c4)c3)nc2c2c1ncn2C",
    "Test target": "Inhibitor of nuclear factor kappa-B kinase subunit beta (Homo sapiens)",
    "Group": 0.0
  },
  {
    "Compound": "CCNc1nc2sc(-c3cccc([C@H](C)NC(=O)COCC)c3)nc2c2c1ncn2C",
    "Test target": "Inhibitor of nuclear factor kappa-B kinase subunit beta (Homo sapiens)",
    "Group": 1.0
  },
  {
    "Compound": "CC(=O)N[C@@H](C)c1cccc(-c2nc3c(nc(N)c4ncn(C)c43)s2)c1",
    "Test target": "Inhibitor of nuclear factor kappa-B kinase subunit beta (Homo sapiens)",
    "Group": 1.0
  },
  {
    "Compound": "CCNc1nc2sc(-c3cccc([C@H](C)NC(=O)C4(C)CC4)c3)nc2c2c1ncn2C",
    "Test target": "Inhibitor of nuclear factor kappa-B kinase subunit beta (Homo sapiens)",
    "Group": 0.0
  },
  {
    "Compound": "CNc1nc2sc(-c3cccc([C@@H](C)NC(C)=O)c3)nc2c2c1ncn2C",
    "Test target": "Inhibitor of nuclear factor kappa-B kinase subunit beta (Homo sapiens)",
    "Group": 0.0
  },
  {
    "Compound": "CCNc1nc2sc(-c3cccc([C@H](C)NC(C)=O)c3)nc2c2c1ncn2C",
    "Test target": "Inhibitor of nuclear factor kappa-B kinase subunit beta (Homo sapiens)",
    "Group": 1.0
  },
  {
    "Compound": "CNc1nc2sc(-c3cccc([C@H](C)NC(C)=O)c3)nc2c2c1ncn2C",
    "Test target": "Inhibitor of nuclear factor kappa-B kinase subunit beta (Homo sapiens)",
    "Group": 1.0
  }
]

Next:
In the record for CNc1nc2sc(-c3cccc(C(C)NC(C)=O)c3)nc2c2c1ncn2C (stereo unspecified) , is IC50 less than 20 nM?
1.0

* * *

Assay: Volume of distribution at steady state in dog at 2 mg/kg, iv
Format: ADME, organism-based, Canis lupus familiaris
Set-up: dose 2 mg/kg, route intravenous
Details: in vivo, read-out: Vdss
Readout name: Vd (L/kg)
Give bare numbers, in L/kg.

Return value of Vd for input `CCNc1nc2sc(-c3cccc([C@H](C)NC(C)=O)c3)nc2c2c1ncn2C` , no commentary.
3.1

* * *

Experiment: Cmax in rat at 2 mg/kg, iv and 10 mg/kg, po
Type: ADME, organism-based
Details: in vivo
Readout name: Cmax (nM)
Answers are plain numbers, in nM.

# return recorded Cmax for input `CCNc1nc2sc(-c3cccc([C@H](C)NC(C)=O)c3)nc2c2c1ncn2C`
1650

* * *

Test: Clearance in mouse at 2 mg/kg, iv and 10 mg/kg, po
Assay type: ADME, organism-based
Settings: in vivo
Readout name: clearance
Note: a bare number is incomplete; add the unit.

Given the molecule `CCNc1nc2sc(-c3cccc([C@H](C)NC(C)=O)c3)nc2c2c1ncn2C` , write its reported clearance.
62 mL/min/kg

* * *

Assay: Cmax in mouse at 2 mg/kg, iv and 10 mg/kg, po
Assay type: ADME, organism-based
Settings: in vivo
Readout name: Cmax (µM)
Answers are plain numbers, in µM.

Indicate the recorded Cmax value for this molecule: `CCNc1nc2sc(-c3cccc([C@H](C)NC(C)=O)c3)nc2c2c1ncn2C`
1.33

* * *

Assay: Oral bioavailability in mouse at 10 mg/kg
Format: ADME, organism-based
Conditions: in vivo
Readout name: bioavailability (%)
Numbers only, in %.

Output measured bioavailability for this item: `CCNc1nc2sc(-c3cccc([C@H](C)NC(C)=O)c3)nc2c2c1ncn2C`
57

* * *

Experiment: Clearance in rat at 2 mg/kg, iv and 10 mg/kg, po
Type: ADME, organism-based
Details: in vivo
Readout name: clearance
Reply with a number, then the unit it belongs to.

[
  {
    "Smiles input": "CCNc1nc2sc(-c3cccc([C@H](C)NC(=O)c4cc(C)on4)c3)nc2c2c1ncn2C",
    "Readout name": "clearance",
    "Observed result": "2.8 mL/min/kg"
  },
  {
    "Smiles input": "CCNc1nc2sc(-c3cccc([C@H](C)NC(=O)C4CCNCC4)c3)nc2c2c1ncn2C",
    "Readout name": "clearance",
    "Observed result": "3 mL/min/kg"
  },
  {
    "Smiles input": "CCNc1nc2sc(-c3cccc([C@H](C)NC(C)=O)c3)nc2c2c1ncn2C",
    "Readout name": "clearance",
    "Observed result": "63 mL/min/kg"
  },
  {
    "Smiles input": "CCNc1nc2sc(-c3cccc([C@H](C)NC(=O)C4CCN(C)CC4)c3)nc2c2c1ncn2C",
    "Readout name": "clearance",
    "Observed result": "130 mL/min/kg"
  },
  {
    "Smiles input": "CCNc1nc2sc(-c3cccc([C@H](C)NC(=O)C4(C)CC4)c3)nc2c2c1ncn2C",
    "Readout name": "clearance",
    "Observed result": "7.5 mL/min/kg"
  }
]

Attention now shifts to the item below.
Give clearance for the following molecule: `CCNc1nc2sc(-c3cccc([C@H](C)NC(=O)c4cccc(S(C)(=O)=O)c4)c3)nc2c2c1ncn2C`
5.1 mL/min/kg
